These measurements were taken from ChEMBL document CHEMBL1201862.

Tested on: MDA-MB-231
Test: NCI tumour cell line growth inhibition, 48 h
Activity calls are given as the source filed them. Cut-off read from the data, not from the text of the source: active = GI50 up to about 1.1 µM and inactive = higher.
Field 'call' accepts 1 for active, 0 for inactive

Molecule	Subject of test	Discrete label
Cc1cc(O)c(C(C)C)cc1SC#N	MDA-MB-231	0
COc1ccc2c(c1)-c1c(c3cc(OC)ccc3n1CCN1CCOCC1)CC2	MDA-MB-231	0
OCC1OC(n2cnc3cccnc32)CC1O (configuration not stated)	MDA-MB-231	0
CCn1c(-c2cc3ccccc3cc2OC(C)=O)n[nH]c1=S	MDA-MB-231	0
CCCOc1ccc(/C=C/C2=[N+](CCO)CCO2)cc1	MDA-MB-231	0

Please let me know the test result on file for Cc1cc(C)nc(NS(=O)(=O)c2ccc(Nc3c4ccccc4nc4c(C(=O)NCCCN(CCO)CCO)cccc34)cc2)n1 .
0

Please let me know the test result on file for C(/Cc1ccc2c(c1)OCO2)=N\N=C1NCCCN1 .
0

Please let me know the test result on file for Cc1ccc(SCC(CF)OCn2cc(F)c(=O)[nH]c2=O)cc1 (configuration not stated) .
0

Please let me know the test result on file for CCOc1ccc(-c2nc(-c3oc4ccccc4c(=O)c3OC(C)=O)cs2)cc1 .
0

Please let me know the test result on file for ClC(Cl)(Cl)C1=N[C@H]2[C@H](Br)[C@@H]3O[C@@H](c4ccccc4)[C@H](c4ccccc4)O[C@@H]3[C@H]2O1 .
0

Please let me know the test result on file for O=C(NC(=S)Nc1ccc([N+](=O)[O-])cc1)c1ccc2c(c1)Sc1ccccc1O2 .
0
